# tested_on: human HER3 receptor (human, UniProt P21860 20-1342)
# Sequence (P21860 20-1342 limits assumed): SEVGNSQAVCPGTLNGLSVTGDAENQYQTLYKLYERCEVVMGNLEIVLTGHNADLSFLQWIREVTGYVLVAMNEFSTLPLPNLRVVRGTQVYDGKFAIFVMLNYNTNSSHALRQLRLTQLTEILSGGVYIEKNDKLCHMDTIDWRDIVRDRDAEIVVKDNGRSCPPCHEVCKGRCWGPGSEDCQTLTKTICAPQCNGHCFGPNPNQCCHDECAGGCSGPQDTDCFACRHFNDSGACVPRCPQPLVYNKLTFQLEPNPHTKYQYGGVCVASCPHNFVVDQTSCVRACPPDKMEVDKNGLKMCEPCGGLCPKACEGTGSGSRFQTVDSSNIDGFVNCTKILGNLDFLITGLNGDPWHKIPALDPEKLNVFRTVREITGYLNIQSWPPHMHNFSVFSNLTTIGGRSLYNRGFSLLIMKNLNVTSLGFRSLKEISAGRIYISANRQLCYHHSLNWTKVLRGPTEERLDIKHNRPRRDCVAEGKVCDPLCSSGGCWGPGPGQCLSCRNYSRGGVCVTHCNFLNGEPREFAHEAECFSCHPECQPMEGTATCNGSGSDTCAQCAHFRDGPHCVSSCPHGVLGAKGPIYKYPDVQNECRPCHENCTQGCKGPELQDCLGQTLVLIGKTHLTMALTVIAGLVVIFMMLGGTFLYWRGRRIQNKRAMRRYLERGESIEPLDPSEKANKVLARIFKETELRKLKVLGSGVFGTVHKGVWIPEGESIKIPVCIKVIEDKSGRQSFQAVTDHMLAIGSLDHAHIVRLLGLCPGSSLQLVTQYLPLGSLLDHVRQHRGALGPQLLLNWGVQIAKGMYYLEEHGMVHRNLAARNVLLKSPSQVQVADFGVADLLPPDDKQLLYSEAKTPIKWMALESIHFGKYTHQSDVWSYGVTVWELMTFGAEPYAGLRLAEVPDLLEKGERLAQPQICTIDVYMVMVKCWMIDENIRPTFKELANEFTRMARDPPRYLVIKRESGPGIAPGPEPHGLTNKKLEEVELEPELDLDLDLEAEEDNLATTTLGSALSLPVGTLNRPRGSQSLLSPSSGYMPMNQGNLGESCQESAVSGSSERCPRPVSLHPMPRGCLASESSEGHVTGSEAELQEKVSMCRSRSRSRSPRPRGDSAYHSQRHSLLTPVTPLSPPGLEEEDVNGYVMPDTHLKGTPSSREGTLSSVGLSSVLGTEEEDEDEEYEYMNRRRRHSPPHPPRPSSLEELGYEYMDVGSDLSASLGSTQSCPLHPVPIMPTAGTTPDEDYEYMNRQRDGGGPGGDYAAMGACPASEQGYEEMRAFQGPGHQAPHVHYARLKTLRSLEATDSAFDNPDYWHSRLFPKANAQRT
# test_details: cell-based or functional assay
endpoint_label: Phospho-HER3 ELISA IC50, heregulin induced HER3 phosphorylation, CHL-1 cells (µg/mL)

[
  {
    "binder": "humanized 1D9 antibody (antibody, human IgG1, kappa, V domains shown) VH: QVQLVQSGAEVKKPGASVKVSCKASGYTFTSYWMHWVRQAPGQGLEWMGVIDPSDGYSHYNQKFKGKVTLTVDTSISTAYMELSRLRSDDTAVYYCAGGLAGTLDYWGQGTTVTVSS VL: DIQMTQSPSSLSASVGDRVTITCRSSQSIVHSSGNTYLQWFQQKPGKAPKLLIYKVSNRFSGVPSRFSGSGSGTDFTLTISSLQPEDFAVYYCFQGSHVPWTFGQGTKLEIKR",
    "unit_symbol": "µg/mL",
    "experimental_value": 0.0365
  }
]

Where do the numbers come from? From patent WO2016059602A2.
